Numbers sourced from patent US20220119522A1.

target: T1, cynomolgus soluble TREM2 (sTREM2) (cynomolgus); assay: MSD assay: sTREM2 captured from healthy cynomolgus CSF, sulfo-tagged antibody titrated
T1 construct: also called sTREM2 in Cyno CSF
Each entry below lists one item and its recorded pEC50 value.
// scale note: pEC50 = -log10(conc_M); give the bare number

Previously resolved entries follow.
Reference antibody #3 (antibody, V domains shown) VH: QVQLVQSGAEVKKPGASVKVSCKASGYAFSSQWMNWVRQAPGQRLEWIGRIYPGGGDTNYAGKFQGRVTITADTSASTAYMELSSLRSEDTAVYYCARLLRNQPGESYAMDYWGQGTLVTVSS VL: DVVMTQSPDSLAVSLGERATINCRSSQSLVHSNRYTYLHWYQQKPGQSPKLLIYKVSNRFSGVPDRFSGSGSGTDFTLKISRVEAEDVGVYYCSQSTRVPYTFGQGTKLEIK | 7.47
CL0020188-7 (antibody, V domains shown, Humanized variant of CL0020188 (hVH NA/graft, hVL TG/graft); also called Clone CL0020188-7) VH: EVQLVESGGGLVQPGGSLRLSCAASGFTFTDFYMSWVRQAPGKGLEWVSVIRNKANAYTAGYNPSVKGRFTISRDNSKNTLYLQMNSLRAEDTAVYYCARLTYGFDYWGQGTLVTVSS VL: DIVMTQTPLSLPVTPGEPASISCQSSKSLLHSTGKTYLNWYLQKPGQSPQLLIYWMSTRASGVPDRFSGSGSGTDFTLKISRVEAEDVGVYYCQQFLEYPFTFGQGTKVEIK | 9.14

Challenge: Please look up its pEC50: CL0020123-7 (antibody, V domains shown, Humanized variant of CL0020123 (hVH NGES/1 m, Vk graft); also called Clone CL0020123-7) VH: QVQLVQSGAEVKKPGASVKVSCKASGFSIEDFYIHWVRQAPGQGLEWMGWIDPENGESKYAPKFQGRVTITADTSTSTAYMELSSLRSEDTAVYYCHADHGNYGSTMDYWGQGTLVTVSS VL: DIQMTQSPSSLSASVGDRVTITCHASQHINVWLSWYQQKPGKAPKLLIYKASNLHTGVPSRFSGSGSGTDFTLTISSLQPEDFATYYCQQGQTYPRTFGQGTKVEIK
Response given: 7.77
